Cited source: patent US9499502B2

Molecular target: soluble human BACE1 catalytic domain (Homo sapiens (Human), UniProt P56817)
Sequence (P56817 75-416): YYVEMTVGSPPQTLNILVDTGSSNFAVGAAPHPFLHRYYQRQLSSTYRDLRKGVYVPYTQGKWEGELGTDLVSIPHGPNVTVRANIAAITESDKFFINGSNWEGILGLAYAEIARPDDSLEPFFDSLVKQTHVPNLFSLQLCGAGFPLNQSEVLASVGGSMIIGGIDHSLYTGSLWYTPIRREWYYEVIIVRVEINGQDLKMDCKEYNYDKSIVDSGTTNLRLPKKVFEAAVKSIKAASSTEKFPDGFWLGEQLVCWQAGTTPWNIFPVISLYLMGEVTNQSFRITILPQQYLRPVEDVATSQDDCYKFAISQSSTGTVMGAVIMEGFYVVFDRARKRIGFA
Assay: BACE1 HTRF FRET Assay
Conditions: read-out: BACE1 Ki
pKi: −log10 of the molar value.
measuredQuantity: pKi

Solved cases (4 shown):
[[record]]
compound = "COc1cccc(C[C@@]2(C)C(=N)N[C@](C)(c3ccc(F)cc3F)CS2(=O)=O)c1 [Example 32i-a]"
observedresult = 5.51

[[record]]
compound = "COc1cncc(-c2cc(Cl)c([C@]3(C)CS(=O)(=O)C(C)(C)C(=N)N3)s2)n1 [Example 27w]"
observedresult = 5.89

[[record]]
compound = "COc1cccc2cc(-c3cc(Cl)c([C@]4(C)CS(=O)(=O)[C@@](C)(CC5CCOCC5)C(=N)N4)s3)[nH]c12 [Example 27bx]"
observedresult = 7.74

[[record]]
compound = "CC1(C)C(=N)N[C@](C)(c2sc(-c3cccc(OC(F)F)c3)cc2Cl)CS1(=O)=O [Example 27o]"
observedresult = 7.18


A. CC1(C)C(=N)N[C@](C)(c2cc(-c3cc(F)cc(-c4cnco4)c3)cs2)CS1(=O)=O [Example 27am]
B. CC1(C)C(=N)N[C@](C)(c2sc(N3Cc4cc(F)ccc4C3=O)cc2Cl)CS1(=O)=O [Example 35a]
C. C[C@@]1(c2ccc(F)cc2F)CS(=O)(=O)[C@](C)(Cc2cccc(Br)c2)C(=N)N1 [Example 32j-b]
# rank by pKi, ascending (min first) Output spec: labels arranged per the requested ranking.
B, C, A

---

Target: soluble human BACE1 catalytic domain (Homo sapiens (Human))
Experiment: BACE1 HTRF FRET Assay
Conditions: read-out: BACE1 Ki; Ki calculated from IC50 using the Cheng-Prusoff equation
measuredQuantity: Ki (nM)

Worked examples follow.
[[record]]
compound = "CC1(C)C(=N)N[C@](C)(c2cc(NC(=O)c3cocn3)ccc2F)CS1(=O)=O [Example 9ap]"
observedresult = 39

[[record]]
compound = "CC1(C)C(=N)N[C@](C)(c2cc(NC(=O)C3(C#N)CC3)ccc2F)CS1(=O)=O [Example 9ah]"
observedresult = 210

[[record]]
compound = "COc1ccc(C(=O)Nc2ccc(F)c([C@]3(C)CS(=O)(=O)C(C)(C)C(=N)N3)n2)nn1 [Example 9ci]"
observedresult = 219


a. COc1ccc(C(=O)Nc2cc(F)c(F)c([C@]3(C)CS(=O)(=O)C(C)(C)C(=N)N3)c2F)nc1 [Example 9ac]
b. CC1(C)C(=N)N[C@](C)(c2cc(NC(=O)c3ccn(C(F)F)n3)ccc2F)CS1(=O)=O [Example 9j]
c. CC1(C)C(=N)N[C@](C)(c2cc(NC(=O)c3cnc(C(F)F)cn3)cc(F)c2F)CS1(=O)=O [Example 9r]
d. CC1=NOC(CNC(=O)c2cc(Cl)c([C@]3(C)CS(=O)(=O)C(C)(C)C(=N)N3)s2)C1 (some centres unmarked) [Example 22f]
Given 4 compounds, produce a descending ranking by Ki. Write the labels, ordered according to the request.
d, a, c, b
(d: 616 nM, a: 18.9 nM, c: 5.3 nM, b: 0.6 nM)

---

Molecular target: soluble human BACE1 catalytic domain (Homo sapiens (Human))
Experiment: BACE1 HTRF FRET Assay
Details: BACE1 Ki (nM)
measuredQuantity: Ki (nM)

[[record]]
compound = "Cc1nc2cc(CC3(C)C(=N)N[C@](C)(c4cc(F)ccc4F)CS3(=O)=O)ccc2o1 (single isomer, unassigned) [Example 32a-b]"
measuredquantity = "Ki"
observedresult = 4640

[[record]]
compound = "COc1ccccc1Nc1ccc(F)c(C2(C)CS(=O)(=O)C(C)(C)C(=N)N2)n1 (stereo not shown) [Example 30a]"
measuredquantity = "Ki"
observedresult = 5280


I. Cc1nc2cc(CC3(C)C(=N)N[C@](C)(c4cc(F)ccc4F)CS3(=O)=O)ccc2o1 (single isomer, unassigned) [Example 32a-a]
II. C[C@@]1(c2sc(-c3nnc(-c4ccc(Cl)cc4)o3)cc2F)CS(=O)(=O)[C@@](C)(c2ccccn2)C(=N)N1 [Example 27bz-b]
Which value of Ki is greater, the one for I or the one for II ? API: response body contains the label of the selected item.
I
(I: 3860 nM, II: 791 nM)

---

Target: soluble human BACE1 catalytic domain (Homo sapiens (Human), UniProt P56817)
Assay: BACE1 HTRF FRET Assay
Settings: read-out: BACE1 Ki; Ki calculated from IC50 using the Cheng-Prusoff equation
measuredQuantity: Ki (nM)

[[record]]
compound = "C=CC[C@@]1(C)C(=N)N[C@](C)(c2cc(NC(=O)c3cnc(OC)cn3)ccc2F)CS1(=O)=O"
measuredquantity = "Ki"
observedresult = 4

[[record]]
compound = "Cc1ccc(C(=O)Nc2ccc(F)c([C@]3(C)CS(=O)(=O)C(C)(C)C(=N)N3)c2)nc1"
measuredquantity = "Ki"
observedresult = 8

[[record]]
compound = "CC(C)[C@@]1(C)C(=N)N[C@](C)(c2cc(NC(=O)c3ccc(F)cn3)ccc2F)CS1(=O)=O"
measuredquantity = "Ki"
observedresult = 31.6


a. CC1(C)C(=N)N[C@](C)(c2nc(NC(=O)c3ccc(Cl)cn3)ccc2F)CS1(=O)=O
b. CC1(C)C(=N)N[C@](C)(c2sc(C(=O)NCc3ccc4cnccc4c3)cc2Cl)CS1(=O)=O [Example 22d]
Between the two listed entries a and b , which has its Ki at the higher number? Could you answer with the label of the item you picked?
b
(b: 4630 nM, a: 13.7 nM)

1. CC1(C)C(=N)N[C@](C)(c2nc(NC(=O)c3ccncn3)ccc2F)CS1(=O)=O
2. C[C@]1(CC2CC2)C(=N)N[C@](C)(c2cc(NC(=O)c3ccc(F)cn3)ccc2F)CS1(=O)=O
3. COc1cccc2cc(C(=O)Nc3ccc(F)c([C@]4(C)CS(=O)(=O)[C@@](C)(CC5CCOCC5)C(=N)N4)c3)[nH]c12
4. CC1(C)C(=N)N[C@](C)(c2sc(C(=O)NCc3cccc(Cl)c3)cc2Cl)CS1(=O)=O [Example 22l]
Please list these compounds in decreasing order of Ki. # list labels per requested ordering
4, 1, 3, 2

I. COc1cnc(C(=O)Nc2ccc(F)c([C@]3(C)CS(=O)(=O)[C@](C)(C4CC4)C(=N)N3)c2)cn1
II. CC1(C)C(=N)N[C@](C)(c2cc(NC(=O)c3ccno3)cc(F)c2F)CS1(=O)=O
III. CC1(C)C(=N)N[C@](C)(c2sc(C(=O)NCc3ccc(Cl)cc3)cc2Cl)CS1(=O)=O [Example 22k]
Kindly order the items shown according to Ki, from the highest value down. Use the labels to give the ranking in the order requested.
III, II, I

I. COc1ccc(-c2nnc(-c3cc(Cl)c([C@]4(C)CS(=O)(=O)C(C)(C)C(=N)N4)s3)o2)cc1 [Example 27bd]
II. CC1(C)C(=N)N[C@](C)(c2cc(NC(=O)C3CCC3)cc(F)c2F)CS1(=O)=O
Out of I and II , name the one with the higher Ki. Return value: the label identifying the chosen record.
II

---

Biological target: soluble human BACE1 catalytic domain (Homo sapiens (Human), UniProt P56817)
Assay: BACE1 HTRF FRET Assay
Conditions: read-out: BACE1 Ki; Ki calculated from IC50 using the Cheng-Prusoff equation
pKi: −log10 of the molar value.
measuredQuantity: pKi

a. Cc1cnc(C(=O)Nc2cc(F)c(F)c([C@]3(C)CS(=O)(=O)C(C)(C)C(=N)N3)c2)cn1
b. CC1(C)C(=N)N[C@](C)(c2cc(NC(=O)[C@H]3CCCO3)cc(F)c2F)CS1(=O)=O
c. COc1cnc(C(=O)Nc2ccc(F)c([C@]3(C)CS(=O)(=O)[C@@](C)(c4ccc(F)cc4)C(=N)N3)c2)cn1
d. CC1(C)C(=N)N[C@](C)(c2cc(NC(=O)c3ccc(F)cc3F)ccc2F)CS1(=O)=O
Sort the 4 compounds by pKi; largest first, smallest last. When ranking, write the labels in the order the request describes.
c, d, a, b
(c: 8.35, d: 7.96, a: 7.16, b: 6.66)

---

Molecular target: purified human autoBACE-2 (Homo sapiens (Human), UniProt Q9Y5Z0)
Sequence (Q9Y5Z0 63-473): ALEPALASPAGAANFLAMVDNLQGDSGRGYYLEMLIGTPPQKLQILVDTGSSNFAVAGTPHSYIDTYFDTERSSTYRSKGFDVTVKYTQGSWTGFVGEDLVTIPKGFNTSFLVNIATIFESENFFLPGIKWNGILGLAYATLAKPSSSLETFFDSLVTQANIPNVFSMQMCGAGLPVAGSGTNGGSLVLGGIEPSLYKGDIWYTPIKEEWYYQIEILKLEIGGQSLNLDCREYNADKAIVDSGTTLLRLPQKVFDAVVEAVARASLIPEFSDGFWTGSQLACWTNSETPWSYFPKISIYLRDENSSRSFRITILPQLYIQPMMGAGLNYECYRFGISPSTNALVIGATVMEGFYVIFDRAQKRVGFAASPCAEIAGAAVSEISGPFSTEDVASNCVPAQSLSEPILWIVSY
Experiment: BACE-2 Assay (BACE-HTRF assay)
Format: biochemical
Conditions: Ki calculated from IC50 using the Cheng-Prusoff equation; read-out: BACE2 Ki
pKi: −log10 of the molar value.
Below is a list of entries, each paired with its recorded pKi value.

[[record]]
molecule = "COc1cnc(C(=O)Nc2cc(F)c(F)c([C@]3(C)CS(=O)(=O)C(C)(C)C(=N)N3)c2)cn1 [Example 9n]"
observedresult = 7.92


We next turn to a different molecule, shown below.
Value wanted: pKi (purified human autoBACE-2 (Homo sapiens (Human), UniProt Q9Y5Z0)) of entry CC1(C)C(=N)N[C@](C)(c2sc(-c3cccc(C(F)(F)F)c3)cc2Cl)CS1(=O)=O [Example 27e]
≥ 8.00
